- targetOrSystem: CDK4/Cyclin D3 (Homo sapiens) (UniProt P11802+P30281)
- testDescription: Inhibition of recombinant full-length human CDK4/cyclinD3 at 500 nM using Rb fragment as substrate measured after 40 mins in presence of [gamma33P]ATP by scintillation counting method relative to control
- Type: protein-complex assay
recordedMetric: inhibition (%)
Note: unit % is implicit; provide only the numeric part.

Example entries begin here.
For the compound shown here, "CN(C)C(=O)c1cc2cnc(Nc3ccc(C(=O)NCCCCCCN=C=S)cc3F)nc2n1C1CCCC1" , give the reported inhibition.
68

For the compound shown here, "CN(C)C(=O)c1cc2cnc(Nc3ccc(NC(=O)CCCCCN=C=S)cc3)nc2n1C1CCCC1" , give the reported inhibition.
99

New cases:
For the compound shown here, "CN(C)C(=O)c1cc2cnc(Nc3ccc(NC(=O)CCCCCCCN=C=S)c(F)c3)nc2n1C1CCCC1" , give the reported inhibition.
75
